Biological target: ACSS2 (Homo sapiens, UniProt Q9NR19)
Sequence (Q9NR19 whole entry): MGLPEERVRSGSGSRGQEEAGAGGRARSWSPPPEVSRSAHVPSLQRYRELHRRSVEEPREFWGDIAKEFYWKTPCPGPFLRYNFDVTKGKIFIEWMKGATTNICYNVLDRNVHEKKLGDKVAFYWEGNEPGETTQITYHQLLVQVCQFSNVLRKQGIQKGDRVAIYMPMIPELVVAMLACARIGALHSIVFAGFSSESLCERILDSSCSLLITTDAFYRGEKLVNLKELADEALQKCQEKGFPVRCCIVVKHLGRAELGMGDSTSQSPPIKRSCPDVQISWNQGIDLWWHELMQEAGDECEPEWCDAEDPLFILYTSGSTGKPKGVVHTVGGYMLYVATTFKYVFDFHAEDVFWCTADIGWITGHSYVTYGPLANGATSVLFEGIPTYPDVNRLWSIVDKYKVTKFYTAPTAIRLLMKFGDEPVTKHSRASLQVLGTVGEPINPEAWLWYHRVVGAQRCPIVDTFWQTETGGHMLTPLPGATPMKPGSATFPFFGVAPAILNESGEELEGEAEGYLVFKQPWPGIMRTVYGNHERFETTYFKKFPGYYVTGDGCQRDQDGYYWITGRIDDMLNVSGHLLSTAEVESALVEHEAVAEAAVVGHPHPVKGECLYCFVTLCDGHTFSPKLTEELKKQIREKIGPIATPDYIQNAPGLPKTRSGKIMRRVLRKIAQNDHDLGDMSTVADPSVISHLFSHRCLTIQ
Assay: Binding to recombinant ACSS2 protein by Label Free MST
Details: Buffer C (+ATP, +CoA), 0.3 mM ATP, 0.01 mM CoA; read-out: Kd [uM] Fluorescence
RESULT TYPE: Kd (µM)
Numbers only, in µM.

Asked: What measured Kd goes with COC(=O)c1cccc(N2N=C(C)C(C(=O)Nc3cccc(C(C)(F)F)c3)C2=O)c1 (stereo not shown) ?
Given back: 0.04

###

Exercise: state measured IC50 for each of the compounds provided.
Target: UniProt Q9NR19
Assay: biochemical

Please review the following examples before continuing.
COMPOUND | EXPERIMENTAL VALUE
CCC(F)(F)c1cncc(NC(=O)C2C(=O)N(c3ccc(OC(F)F)cc3)N=C2C)c1 (stereo not shown) [compound 511] | 0.01 to 6 nM
COc1ccc(N2N=C(C)C(C(=O)Nc3cccc(C(C)(F)F)c3)C2=O)cc1 (stereo not shown) [compound 265] | 0.01 to 6 nM
CCC(F)(F)c1cccc(NC(=O)C2C(=O)N(c3ccc(OC)c(-c4ccncc4C)c3)N=C2C)c1 (stereo not shown) [compound 532] | 0.01 to 6 nM

Kindly consider the entry below.
Asked: What measured IC50 goes with CCC(F)(F)c1cccc(NC(=O)C2C(=O)N(c3ccc4ccn(C(=O)c5cccc(C)c5)c4c3)N=C2C)c1 (stereo not shown) [compound 483] ?
Given back: 6 to 100 nM

###

Target: ACSS1 (Homo sapiens)
Sequence (Q9NUB1 38-689): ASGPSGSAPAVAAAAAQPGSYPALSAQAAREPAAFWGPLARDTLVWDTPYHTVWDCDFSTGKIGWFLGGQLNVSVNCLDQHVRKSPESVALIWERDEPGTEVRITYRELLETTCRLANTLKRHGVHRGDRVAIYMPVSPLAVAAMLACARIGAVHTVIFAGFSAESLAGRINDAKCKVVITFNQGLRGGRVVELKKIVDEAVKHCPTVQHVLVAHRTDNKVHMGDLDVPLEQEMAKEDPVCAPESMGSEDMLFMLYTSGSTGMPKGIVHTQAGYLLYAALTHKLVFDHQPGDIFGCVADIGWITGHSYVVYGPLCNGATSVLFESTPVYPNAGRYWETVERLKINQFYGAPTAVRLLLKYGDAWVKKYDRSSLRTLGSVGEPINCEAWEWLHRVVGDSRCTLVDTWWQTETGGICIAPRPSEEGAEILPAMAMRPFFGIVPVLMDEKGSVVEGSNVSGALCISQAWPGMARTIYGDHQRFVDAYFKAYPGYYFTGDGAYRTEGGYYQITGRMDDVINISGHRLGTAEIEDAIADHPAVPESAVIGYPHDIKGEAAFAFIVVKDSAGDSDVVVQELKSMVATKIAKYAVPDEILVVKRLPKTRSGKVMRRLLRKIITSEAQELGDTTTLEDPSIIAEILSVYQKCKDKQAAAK
Assay: Acyl-CoA synthetases selectivity panel: ACSS1
Conditions: human recombinant protein, substrate acetate, AMP readout by HPLC; read-out: HPLC based activity assays IC50 (UM) ACSS1
Exercise: state measured IC50 for each of the molecules provided.

Please review the following examples before continuing.
MOLECULE | RESULT TYPE | EXPERIMENTAL VALUE
COc1ccc(N2N=C(C)C(C(=O)Nc3cccc(C(C)(F)F)c3)C2=O)cc1 (stereo not shown) [compound 265] | IC50 | 1 to 10 µM
COC(=O)c1cccc(N2N=C(C)C(C(=O)Nc3cccc(-c4ccco4)c3)C2=O)c1 (stereo not shown) [compound 269] | IC50 | 10 to 100 µM

List reported IC50 for each of these molecules:
1. CC1=NN(c2ccccc2)C(=O)C1C(=O)Nc1cccc(C(C)(F)F)c1 (stereo not shown) [compound 141]
2. CC1=NN(c2ccc(C(F)(F)F)cc2)C(=O)C1C(=O)Nc1cccc(C(C)(F)F)c1 (stereo not shown) [compound 264]
3. COc1ccc(N2N=C(C)C(C(=O)Nc3cccc(-c4ccco4)c3)C2=O)cc1 (stereo not shown) [compound 266]
4. CC1=NN(c2ccccc2)C(=O)C1C(=O)Nc1cccc(-c2ccco2)c1 (stereo not shown) [compound 108]
5. COC(=O)c1cccc(N2N=C(C)C(C(=O)Nc3cccc(C(C)(F)F)c3)C2=O)c1 (stereo not shown) [compound 261]

Given back:
["10 to 100 µM", "1 to 10 µM", "10 to 100 µM", "10 to 100 µM", "1 to 10 µM"]

###

Target: ACSF2 (Homo sapiens)
Sequence (Q96CM8 42-615): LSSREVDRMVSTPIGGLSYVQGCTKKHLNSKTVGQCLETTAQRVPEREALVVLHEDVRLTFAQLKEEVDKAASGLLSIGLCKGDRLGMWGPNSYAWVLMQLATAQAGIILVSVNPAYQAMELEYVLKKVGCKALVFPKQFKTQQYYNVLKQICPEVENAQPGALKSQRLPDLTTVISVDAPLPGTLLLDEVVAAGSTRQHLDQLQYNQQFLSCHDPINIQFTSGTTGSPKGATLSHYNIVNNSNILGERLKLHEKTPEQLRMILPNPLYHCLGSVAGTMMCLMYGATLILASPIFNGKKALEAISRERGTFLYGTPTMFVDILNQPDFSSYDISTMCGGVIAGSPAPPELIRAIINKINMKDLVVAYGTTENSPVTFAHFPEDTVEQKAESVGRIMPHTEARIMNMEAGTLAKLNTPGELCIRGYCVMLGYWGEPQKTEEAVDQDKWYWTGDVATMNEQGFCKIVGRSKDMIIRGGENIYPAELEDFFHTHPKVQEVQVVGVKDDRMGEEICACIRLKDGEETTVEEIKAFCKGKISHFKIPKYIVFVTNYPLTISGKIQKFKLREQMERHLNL
Experiment: Acyl-CoA synthetases selectivity panel: ACSF2
Details: human recombinant protein, substrate octanoate, AMP readout by HPLC; read-out: HPLC based activity assays IC50 (UM) ACSF2
RESULT TYPE: pIC50
Give bare numbers, as −log10 of the molar value.

List reported pIC50 for each of these compounds:
1. COc1ccc(N2N=C(C)C(C(=O)Nc3cccc(-c4ccco4)c3)C2=O)cc1 (stereo not shown)
2. CC1=NN(c2ccccc2)C(=O)C1C(=O)Nc1cccc(-c2ccco2)c1 (stereo not shown)
3. CC1=NN(c2ccccc2)C(=O)C1C(=O)Nc1cccc(C(C)(F)F)c1 (stereo not shown)
4. COC(=O)c1cccc(N2N=C(C)C(C(=O)Nc3cccc(C(C)(F)F)c3)C2=O)c1 (stereo not shown)
5. CC1=NN(c2ccc(C(F)(F)F)cc2)C(=O)C1C(=O)Nc1cccc(C(C)(F)F)c1 (stereo not shown)
6. COc1ccc(N2N=C(C)C(C(=O)Nc3cccc(C(C)(F)F)c3)C2=O)cc1 (stereo not shown)
7. COC(=O)c1cccc(N2N=C(C)C(C(=O)Nc3cccc(-c4ccco4)c3)C2=O)c1 (stereo not shown)

Given back:
[4.29, 4.44, 3.80, 4.34, 4.37, 3.82, 4.55]

###

Exercise: state measured pIC50 for each of the compounds provided.
Biological target: ACSS2 (Homo sapiens, UniProt Q9NR19)
Assay: cell-based
pIC50: −log10 of the molar value.

COMPOUND | EXPERIMENTAL VALUE
COc1ccc(N2N=C(C)C(C(=O)Nc3cccc(C(C)(F)F)c3)C2=O)cc1 (centres unmarked) | 7.30 to 9.30

Asked: Give recorded pIC50 with ACSS2 (Homo sapiens, UniProt Q9NR19) for the following compound: CC1=NN(c2ccc(OC(F)F)cc2)C(=O)C1C(=O)N[C@H]1CC[C@@H](O)[C@@H](O)C1 (some centres unmarked)
Given back: < 7.00

###

Target: ACSS2 (Homo sapiens)
Assay: biochemical
RESULT TYPE: IC50

Please review the following examples before continuing.
COMPOUND | EXPERIMENTAL VALUE
CCC(F)(F)c1cccc(NC(=O)C2C(=O)N(c3ccc(OC)c(-c4ncccc4C)c3)N=C2C)c1 (stereo not shown) [compound 535] | 0.01 to 6 nM
CON(C)C(=O)C(F)(F)c1cccc(NC(=O)C2C(=O)N(c3ccc(OC(F)F)c(-c4ccccn4)c3)N=C2C)c1 (stereo not shown) [compound 471] | 100 to 1000 nM
CCC(F)(F)c1cccc(NC(=O)C2C(=O)N(c3ccc(OC(F)F)cc3)N=C2C)n1 (stereo not shown) [compound 486] | 0.01 to 6 nM

List reported IC50 for each of these compounds:
1. CC1=NN(c2ccc(OC(F)F)cc2)C(=O)C1C(=O)Nc1cccc(C(F)=C(C)C)c1 (stereo not shown) [compound 496]
2. CCC(F)(F)c1cccc(NC(=O)C2C(=O)N(c3ccc4ccnnc4c3)N=C2C)c1 (stereo not shown) [compound 524]
3. CCC(F)(F)c1cccc(NC(=O)C2C(=O)N(c3ccc4ccn(-c5ccccc5)c4c3)N=C2C)c1 (stereo not shown) [compound 472]
4. C/C=C(\F)c1cccc(NC(=O)C2C(=O)N(c3ccc(OC(F)F)cc3)N=C2C)c1 (stereo not shown) [compound 494]

Given back:
1. 6 to 100 nM
2. 6 to 100 nM
3. 0.01 to 6 nM
4. 0.01 to 6 nM

###

Exercise: state measured IC50 for each of the molecules provided.
Biological target: UniProtKB Q9NR19
Experiment: cell-based

Please review the following examples before continuing.
MOLECULE | SYSTEM TESTED | RESULT TYPE | EXPERIMENTAL VALUE
CC1=NN(c2cccc(C(F)(F)F)c2)C(=O)C1C(=O)Nc1cccc(-c2cnccn2)c1 (centres unmarked) | UniProtKB Q9NR19 | IC50 | > 1000 nM
CC1=NN(c2ccccc2)C(=O)C1C(=O)Nc1cccc(C(=O)N(C)C)c1 (centres unmarked) | UniProtKB Q9NR19 | IC50 | > 1000 nM
COC(=O)c1cccc(N2N=C(C)C(C(=O)Nc3cccc(-c4ncc[nH]4)c3)C2=O)c1 (centres unmarked) | UniProtKB Q9NR19 | IC50 | 100 to 1000 nM

List reported IC50 for each of these molecules:
1. COC(=O)c1cccc(N2N=C(C)C(C(=O)Nc3cccc(-c4cnccn4)c3)C2=O)c1 (centres unmarked)
2. CC(=O)Cc1cccc(NC(=O)C2C(=O)N(c3ccccc3)N=C2C)c1 (centres unmarked)

Given back:
1. 100 to 1000 nM
2. 100 to 1000 nM

###

Target: ACSS2 (Homo sapiens, UniProt Q9NR19)
Test: biochemical
Exercise: state measured IC50 for each of the compounds provided.

Please review the following examples before continuing.
COMPOUND | IC50
CCC(F)(F)c1cccc(NC(=O)C2C(=O)N(c3ccc4ccoc4c3)N=C2C)c1 (stereo not shown) | 0.01 to 6 nM
CCC(F)(F)c1cccc(NC(=O)C2C(=O)N(c3ccc4nccnc4c3)N=C2C)c1 (stereo not shown) | 0.01 to 6 nM
CC1=NN(c2ccc(OC(F)F)cc2)C(=O)C1C(=O)Nc1cncc(C#N)c1 (stereo not shown) | 100 to 1000 nM
CCC(F)(F)c1cccc(NC(=O)C2C(=O)N(c3cccc4occc34)N=C2C)c1 (stereo not shown) | 0.01 to 6 nM
CCC(F)(F)c1cccc(NC(=O)C2C(=O)N(c3ccc(OC)cc3)N=C2C(C)=O)c1 (stereo not shown) | 100 to 1000 nM
CC(F)(F)c1cccc(NC(=O)C2C(=O)N(c3ccc(OC(F)F)cc3)N=C2CS)c1 (stereo not shown) | 100 to 1000 nM
CCC(F)(F)c1cccc(NC(=O)C2C(=O)N(c3ccc4ccn(C(=O)c5ccccc5O)c4c3)N=C2C)c1 (stereo not shown) | 0.01 to 6 nM
CCC(F)(F)c1cccc(NC(=O)C2C(=O)N(c3ccc4c(C)cn(C)c4c3)N=C2C)c1 (stereo not shown) | 0.01 to 6 nM

List reported IC50 for each of these compounds:
1. CCC(F)(F)c1cccc(NC(=O)C2C(=O)N(c3ccc4ccn(C)c4c3)N=C2C)c1 (stereo not shown)
2. CCC(F)(F)c1cccc(NC(=O)C2C(=O)N(c3ccc4ccn(S(=O)(=O)c5ccccc5)c4c3)N=C2C)c1 (stereo not shown)
3. CCC(F)(F)c1ccnc(NC(=O)C2C(=O)N(c3ccc(OC(F)F)cc3)N=C2C)c1 (stereo not shown)
4. CC1=NN(c2cc(-c3cccnc3)cc(-c3cccc4[nH]ccc34)c2)C(=O)C1C(=O)Nc1cccc(C(C)(F)F)c1 (stereo not shown)
5. CCC(F)(F)c1cccc(NC(=O)C2C(=O)N(c3ccc(OC)c(-c4ccc(C)cn4)c3)N=C2C)c1 (stereo not shown)
6. CCC(F)(F)c1cccc(NC(=O)C2C(=O)N(c3ccc(Cl)nn3)N=C2C)c1 (stereo not shown)
7. CC1=NN(c2ccc(OC(F)F)cc2)C(=O)C1C(=O)Nc1cccc(C(F)(F)C2CCCC2)c1 (stereo not shown)
8. CCC(F)(F)c1cccc(NC(=O)C2C(=O)N(c3ccc(OC)cc3F)N=C2C)c1 (stereo not shown)

Given back:
1. 0.01 to 6 nM
2. 0.01 to 6 nM
3. 6 to 100 nM
4. 6 to 100 nM
5. 0.01 to 6 nM
6. 6 to 100 nM
7. 100 to 1000 nM
8. 0.01 to 6 nM
